# System: L1210
# protocol_details: Ability to inhibit cell growth was measured on L1210 cells(horse serum)
# Format: functional, cell-based
# run_conditions: Mus musculus
pIC50: −log10 of the molar value.
measured_parameter: pIC50

C#CCN(Cc1ccc2nc(C)nc(O)c2c1)c1ccc(C(=O)NCc2cccc(C#N)c2)cc1 :: 5.82
C#CCN(Cc1ccc2nc(C)nc(O)c2c1)c1ccc(C(=O)NCc2ccco2)cc1 :: 5.22
C#CCN(Cc1ccc2nc(C)nc(O)c2c1)c1ccc(C(=O)NCc2ccccc2[N+](=O)[O-])cc1 :: 5.74

[1] C#CCN(Cc1ccc2nc(C)nc(O)c2c1)c1ccc(C(=O)NCc2ccc(Cl)cc2)cc1
[2] C#CCN(Cc1ccc2nc(C)nc(O)c2c1)c1ccc(C(=O)NCc2ccc([N+](=O)[O-])cc2)cc1
[3] C#CCN(Cc1ccc2nc(C)nc(O)c2c1)c1ccc(C(=O)NCc2cccc([N+](=O)[O-])c2)cc1
[4] C#CCN(Cc1ccc2nc(C)nc(O)c2c1)c1ccc(C(=O)NCc2ccccn2)cc1
Parameters: sort_field (pIC50), sort_dir (desc). In plain terms: list the labels in the order you were asked to.
3, 2, 4, 1

----------
# Test system: L1210 (1565)
# protocol_details: Concentration to inhibit cell growth was measured on L1210:1565 cell line
# Format: functional, cell-based
# run_conditions: Mus musculus
measured_parameter: IC50 (µM)

Use the examples below as a reference point.
C#CCN(Cc1cc2c(O)nc(C)nc2cc1C)c1ccc(C(=O)NCc2cncs2)c(F)c1 :: 0.24
C#CCN(Cc1ccc2nc(C)nc(O)c2c1)c1ccc(C(=O)N[C@@H](C(=O)O)c2ccccc2)cc1 :: 30
C#CCN(Cc1cc2c(O)nc(C)nc2cc1C)c1ccc(C(=O)N[C@@H](C(=O)O)c2cccc([N+](=O)[O-])c2)c(F)c1 :: 1.25

[I] C#CCN(Cc1ccc2nc(C)nc(O)c2c1)c1ccc(C(=O)NCc2cccc(C#N)c2)cc1
[II] C#CCN(Cc1ccc2nc(C)nc(O)c2c1)c1ccc(C(=O)N[C@H](CCC(N)=O)C(=O)O)cc1
[III] C#CCN(Cc1cc2c(O)nc(C)nc2cc1C)c1ccc(C(=O)N[C@H](CCC(=O)O)C(=O)O)c(F)c1
Parameters: sort_field (IC50), sort_dir (desc). In plain terms: list the labels in the order you were asked to.
II, III, I

----------
# system: Thymidylate synthase (Mus musculus, UniProt P07607)
# Sequence (P07607 whole entry): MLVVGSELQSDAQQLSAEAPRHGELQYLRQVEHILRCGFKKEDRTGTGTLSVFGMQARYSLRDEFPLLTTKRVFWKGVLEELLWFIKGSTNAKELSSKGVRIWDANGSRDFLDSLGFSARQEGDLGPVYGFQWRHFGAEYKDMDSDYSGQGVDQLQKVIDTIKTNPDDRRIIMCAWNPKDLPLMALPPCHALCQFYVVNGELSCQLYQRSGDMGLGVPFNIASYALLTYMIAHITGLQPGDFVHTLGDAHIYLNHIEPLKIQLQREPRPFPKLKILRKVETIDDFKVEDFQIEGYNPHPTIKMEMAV
# protocol_details: Ability to inhibit Thymidylate synthase purified from mouse L1210 leukemia cells that overproduce thymidylate synthase (TS)
measured_parameter: IC50 (nM)

Use the examples below as a reference point.
C#CCN(Cc1cc2c(O)nc(C)nc2cc1C)c1ccc(C(=O)NCc2ccccn2)c(F)c1 :: 114
C#CCN(Cc1ccc2nc(C)nc(O)c2c1)c1ccc(C(=O)N[C@@H](C(=O)O)c2ccc(F)cc2)cc1 :: 89

[I] C#CCN(Cc1ccc2nc(C)nc(O)c2c1)c1ccc(C(=O)NCc2nc(C)cs2)cc1
[II] C#CCN(Cc1cc2c(O)nc(C)nc2cc1C)c1ccc(C(=O)NCc2nccs2)c(F)c1
[III] C#CCN(Cc1cc2c(O)nc(C)nc2cc1C)c1ccc(C(=O)NCc2cccc(C#N)c2)c(F)c1
[IV] C#CCN(Cc1ccc2nc(C)nc(O)c2c1)c1ccc(C(=O)N[C@@H](C(=O)O)c2cccc(O)c2)cc1
[V] C#CCN(Cc1cc2c(O)nc(C)nc2cc1C)c1ccc(C(=O)N[C@@H](C(=O)O)C(C)C)c(F)c1
Parameters: sort_field (IC50), sort_dir (desc). In plain terms: list the labels in the order you were asked to.
I, IV, II, III, V
